# System: undifferentiated ReNcell VM NPCs
# experimentalDetails: On-chip proliferation assay (EdU incorporation), undifferentiated NPCs
# Type: cell-based, human
# testParameters: undifferentiated, 72 hr exposure, EdU for the final 24 hr, sigmoidal fit; read-out: Proliferation Effects Undifferentiating IC50

{"columns": ["molecule", "unitText", "IC50"],
 "data": [
  ["[Cl][Cd][Cl] [Cadmium Chloride]", "µM", 8.6]
]}

====

# Tested on: undifferentiated ReNcell VM NPCs
# experimentalDetails: cells
# testParameters: human, 72 h
measuredProperty: Normalized viability at Cmax, Undifferentiated, Mean ± SEM

{"columns": ["compound", "resultValue"],
 "data": [
  ["Fc1ccc([C@@H]2CCNC[C@H]2COc2ccc3c(c2)OCO3)cc1 [Paroxetine]", 0.07],
  ["C[C@@H]1C[C@H]2[C@@H]3CCC4=CC(=O)C=C[C@]4(C)[C@@]3(F)[C@@H](O)C[C@]2(C)[C@@]1(O)C(=O)CO [Dexamethasone]", 1.35],
  ["COc1cccc2c1C(=O)c1c(O)c3c(c(O)c1C2=O)C[C@@](O)(C(=O)CO)C[C@@H]3O[C@H]1C[C@H](N)[C@H](O)[C@H](C)O1 [Doxorubicin]", 0.05],
  ["CCCC(CCC)C(=O)O [Valproic Acid]", 0.99],
  ["CN1CCN2c3ncccc3Cc3ccccc3C2C1 (centres unmarked) [Mitrazepine, Mirtazapine]", 1.11],
  ["CC1=C(/C=C/C(C)=C/C=C/C(C)=C/C(=O)O)C(C)(C)CCC1 [Retinoic Acid]", 0.55],
  ["CC(=O)Nc1ccc(O)cc1 [Acetaminophen]", -0.16],
  ["O=c1[nH]cc(F)c(=O)[nH]1 [5-Fluorouracil]", 0.15]
]}

====

Normalized viability at Cmax, Differentiating, Mean ± SEM listing for selected compounds.
# Test system: differentiating ReNcell VM NPCs
# experimentalDetails: cells
measuredProperty: Normalized viability at Cmax, Differentiating, Mean ± SEM

{"columns": ["compound", "targetOrTestSystem", "resultValue"],
 "data": [
  ["O=C(O)CNCP(=O)(O)O [Glyphosate]", "differentiating ReNcell VM NPCs", 0.41],
  ["O=C1CN=C(c2ccccc2)c2cc([N+](=O)[O-])ccc2N1 [Nitrazepam]", "differentiating ReNcell VM NPCs", 1.07],
  ["O=C(O)C[C@H](O)C[C@H](O)/C=C/c1c(C2CC2)nc2ccccc2c1-c1ccc(F)cc1 [Pitavistatin]", "differentiating ReNcell VM NPCs", 1.16],
  ["C[n+]1ccc(-c2cc[n+](C)cc2)cc1 [Paraquat]", "differentiating ReNcell VM NPCs", 0.05],
  ["Nc1ccn([C@@H]2O[C@H](CO)[C@@H](O)[C@@H]2O)c(=O)n1 [Cytosine Arabinoside]", "differentiating ReNcell VM NPCs", 0.47],
  ["CC(COc1ccccc1Cc1ccccc1)N1CCCCC1 (stereo not drawn) [Benproperone, Benproperine]", "differentiating ReNcell VM NPCs", 0.71]
]}

====

# Tested on: undifferentiated ReNcell VM NPCs
# experimentalDetails: cells
# Description: On-chip cultures of undifferentiated and 10-day differentiated NPCs were stamped with WellChips filled with compound-containing solutions and incubated for 72 hr prior to viability assessment. Vehicle-control normalized viabilities were plotted against compound concentration to generate dose-response plots (Figures 5A and S4). […] Cell viability was determined in 3D on-chip cultures using a mammalian cell viability assay (LIVE/DEAD, Invitrogen). […]
Normalized viability at Cmax, Undifferentiated, Mean ± SEM listing for selected compounds.
measuredProperty: Normalized viability at Cmax, Undifferentiated, Mean ± SEM

{"columns": ["compound", "resultValue"],
 "data": [
  ["CC(COc1ccccc1Cc1ccccc1)N1CCCCC1 (stereo not drawn)", 0.06],
  ["O=C(O)CNCP(=O)(O)O [Glyphosate]", 0.01],
  ["O=C(O)C[C@H](O)C[C@H](O)/C=C/c1c(C2CC2)nc2ccccc2c1-c1ccc(F)cc1", 0.14],
  ["Nc1ccn([C@@H]2O[C@H](CO)[C@@H](O)[C@@H]2O)c(=O)n1 [Cytosine Arabinoside]", 0.40],
  ["O=C1CN=C(c2ccccc2)c2cc([N+](=O)[O-])ccc2N1", 1.16],
  ["C[n+]1ccc(-c2cc[n+](C)cc2)cc1", -0.02]
]}
